Experiment: Cytotoxicity against albino Swiss mouse peritoneal macrophages assessed as reduction in cell viability incubated for 24 hrs by Presto blue assay
Assay type: tissue-based, Macrophage
Conditions: read-out: LC50
Lab note: compare CC50 at 24 h with 40 µM, writing 1 (yes) if less and 0 (no) if equal or more.

# input For this compound, is CC50 at 24 h lower than 40 µM? Cc1ccc(S(=O)(=O)n2cc(COC3=C/C(=N\c4ccc(F)cc4)c4ccccc4C3=O)nn2)cc1
# output 1 (yes)

# input Please do the same for COc1ccc(/N=C2\C=C(OCc3cn(S(=O)(=O)c4ccc(C)cc4)nn3)C(=O)c3ccccc32)cc1 as well.
# output 0 (no)

# input Please do the same for Cc1cccc(SC2=CC(=O)C(=O)c3ccccc32)c1 as well.
# output 0 (no)

# input Please do the same for Cc1ccc(S(=O)(=O)n2cc(COC3=C/C(=N\c4ccc(I)cc4)c4ccccc4C3=O)nn2)cc1 as well.
# output 0 (no)

# input Please do the same for COc1ccc(SC2=CC(=O)C(=O)c3ccccc32)cc1 as well.
# output 0 (no)

# input Please do the same for Cc1ccc(/N=C2\C=C(OCc3cn(S(=O)(=O)c4ccc(C)cc4)nn3)C(=O)c3ccccc32)cc1 as well.
# output 0 (no)

# input Please do the same for Cc1ccc(SC2=CC(=O)C(=O)c3ccccc32)cc1 as well.
# output 0 (no)

# input Please do the same for Cc1ccc(S(=O)(=O)n2cc(COC3=C/C(=N\c4ccc(Cl)cc4)c4ccccc4C3=O)nn2)cc1 as well.
# output 0 (no)

# input Please do the same for O=C(Cn1ccnc1[N+](=O)[O-])NCc1ccccc1 as well.
# output 0 (no)

# input Please do the same for Cc1ccc(S(=O)(=O)n2cc(COC3=C/C(=N\c4ccccc4)c4ccccc4C3=O)nn2)cc1 as well.
# output 0 (no)

# input Please do the same for O=C1C=C(Sc2ccccc2)c2ccccc2C1=O as well.
# output 1 (yes)

# input Please do the same for Cc1ccc(S(=O)(=O)n2cc(COC3=C/C(=N\c4ccc(Br)cc4)c4ccccc4C3=O)nn2)cc1 as well.
# output 0 (no)

###

Assay: Selectivity index, ratio of IC50 for mouse L929 cells to IC50 for human HCT116 cells after 72 hrs by MTT assay
Type: toxicity
Settings: L929 cells versus HCT116 cells, read-out: Ratio IC50
Please go through the items and note down their selectivity ratio at 72 h.
Respond using a number only.

# input Look at this molecule and give its reported selectivity ratio at 72 h. COc1ccc(/N=C2\C=C(OCc3cn(S(=O)(=O)c4ccc(C)cc4)nn3)C(=O)c3ccccc32)cc1
# output 2.9

# input Please do the same for C#CCOC1=C/C(=N\c2ccc(I)cc2)c2ccccc2C1=O as well.
# output 1.5

# input Please do the same for Cc1ccc(S(=O)(=O)n2cc(COC3=C/C(=N\c4ccc(Br)cc4)c4ccccc4C3=O)nn2)cc1 as well.
# output 1.9

# input Please do the same for Cc1ccc(S(=O)(=O)n2cc(COC3=C/C(=N\c4ccccc4)c4ccccc4C3=O)nn2)cc1 as well.
# output 3.8

# input Please do the same for Cc1ccc(S(=O)(=O)n2cc(COC3=C/C(=N\c4ccc(F)cc4)c4ccccc4C3=O)nn2)cc1 as well.
# output 3.5

# input Please do the same for Cc1ccc(S(=O)(=O)n2cc(COC3=C/C(=N\c4ccc(I)cc4)c4ccccc4C3=O)nn2)cc1 as well.
# output 1

# input Please do the same for COc1ccc(SC2=CC(=O)C(=O)c3ccccc32)cc1 as well.
# output 1

# input Please do the same for Cc1cccc(SC2=CC(=O)C(=O)c3ccccc32)c1 as well.
# output 1.8

# input Please do the same for C#CCOC1=C/C(=N\c2ccc(C)cc2)c2ccccc2C1=O as well.
# output 1.6
